# assay name: reversal of MRP1-mediated doxorubicin resistance, pilot screen, H69AR cells, doxorubicin co-treatment (AID 601)
# condition set: H69AR cells + 2 uM doxorubicin, CellTiter-Glo, 72 h; at 10 µM; active compounds read high
measure: differential viability (reversal) (%)
Give bare numbers, in %.

compound=CCN(CCCNC(=O)COc1cc(=O)n(CC)c2ccccc12)c1ccccc1 result_value=5.79
compound=CCCCc1c(O)nc(N2CCN(Cc3ccccc3)CC2)[nH]c1=O result_value=-1.67
compound=Cc1ccc(S(=O)(=O)NC(=O)NN2CCCCCC2)cc1 result_value=14
compound="COc1ccc(CC(=O)Nc2c3c(nn2-c2cccc(Cl)c2)CS(=O)C3)cc1 (stereo not given)" result_value=14.5
compound="O=C(COC(=O)c1cccc(S(=O)(=O)N2CCc3ccccc32)c1)NC1CCS(=O)(=O)C1 (stereo not given)" result_value=0.47
compound=O=C(Oc1ccccc1)c1cccc(COC(=O)c2cnccn2)c1 result_value=14.2

Provide differential viability (reversal) for all items below, preserving their order.
1. COc1ccc(-c2nnc(SCc3nnc(-c4ccc(Cl)cc4)o3)n2-c2ccccc2)cc1
2. COc1ccc(-c2noc(CCC(=O)NCCCN3CCC(Cc4ccccc4)CC3)n2)cc1
3. Cc1cc(C)cc(-n2nnc(C(=O)NCc3ccc4c(c3)OCO4)c2N)c1
4. C=CCSc1nnc(NC(=O)c2ccc(S(=O)(=O)NCC3CCCO3)cc2)s1 (stereo not given)

1: 4.27; 2: -1.48; 3: -6.51; 4: -2.83

---

# assay name: SK-BR-3 cell growth inhibitors, pilot screen, 24 h, human (AID 572);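 note: compound exposure lasted between 18 and 24 h rather than exactly 24 h; 100% = carrier-treated control wells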
# condition set: SK-BR-3 viability, CellTiter-Glo luminescence, at 10 µM, active compounds read low
The source made the active and inactive calls.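 How the source made its calls: active means viability at or below 10% of carrier control in both of two separate runs; inconclusive means viability at or below 10% in only one of the two runs; inactive means the rest.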
measure: viability

compound="O=C1C(Cl)=C(NCC2CCCO2)C(=O)N1CCc1ccccc1 (stereo not given)" result_value="75% (inactive)"

Provide viability for all items below, preserving their order.
1. CC(C)OC(=O)c1ccc(NC(=O)C2C3CC4OC(=O)C2C4C3)cc1 (stereo not given)
2. O=C(CN1CCN(Cc2ccc3c(c2)OCO3)CC1)N1CCc2[nH]c3ccc(F)cc3c2C1
3. CC(C)CNS(=O)(=O)c1ccc(CCC(=O)NCc2ccco2)cc1

1: 104% (inactive); 2: 96% (inactive); 3: 113% (inactive)

Provide viability for all items below, preserving their order.
1. Cc1cc(C(=O)CSc2nc3ccccc3n2CCC#N)c(C)n1Cc1cccs1
2. COC(=O)c1ccc(CSc2nc3ccccc3s2)o1
3. COc1ccc(/C=N/n2c(SC)nnc2-c2ccccc2)cc1C

["58% (inactive)", "101% (inactive)", "116% (inactive)"]

Provide viability for all items below, preserving their order.
1. CN(C)S(=O)(=O)c1ccc(C(=O)N2CCCC2c2nc3ccccc3s2)cc1 (stereo not given)
2. CCC(C)n1ncn(-c2ccc(N3CCN(c4ccc(OCC5COC(Cn6cncn6)(c6ccc(Cl)cc6Cl)O5)cc4)CC3)cc2)c1=O (stereo not given)
3. CCOC(=O)c1cccc(NC(=O)CSc2nnc(-c3cccnc3)n2C)c1
4. CSC1=C(C#N)C(C)CC(=O)N1 (stereo not given)
5. Cc1[nH]nc2c1C(c1ccc(F)cc1)C1=C(CC(C)(C)CC1=O)N2 (stereo not given)
6. CCN(C(=O)c1cccs1)c1nnc(-c2ccncc2)s1
7. O=C(Nc1ccc(Cl)cc1C(=O)O)c1ccc2c(c1)C(=O)N(Cc1ccco1)C2=O
8. CC(=O)Nc1ccc(S(=O)(=O)N2CCN(c3cc(C)nc4ccccc34)CC2)cc1

1. 98% (inactive)
2. 84% (inactive)
3. 99% (inactive)
4. 91% (inactive)
5. 126% (inactive)
6. 105% (inactive)
7. 72% (inactive)
8. 103% (inactive)

---

# assay name: reversal of MRP1-mediated doxorubicin resistance, pilot screen, H69AR cells, doxorubicin co-treatment (AID 601)
# condition set: H69AR cells + 2 uM doxorubicin, CellTiter-Glo, 72 h; at 10 µM; active compounds read high
Can you tell me differential viability (reversal) for the items I'm about to list?
Answers are plain numbers, in %.

Some entries whose results are on file:
compound=COc1ccccc1OCc1ccc(C(=O)Nc2ccncc2)o1 result_value=-0.005
compound="COc1ccc(CCN2C(=O)C3C4C=CC(C4)C3C2=O)cc1OC (centres undefined)" result_value=5.05
compound="O=C(C1CCCO1)N1CCN(S(=O)(=O)c2ccccc2)CC1 (centres undefined)" result_value=-6.22
compound=O=C(Nc1ccc(N2CCOCC2)cc1)C1CC1 result_value=8.07
compound=CS(=O)(=O)NCc1nnc(SCC(=O)NC2CCCCC2)n1-c1ccc(F)cc1 result_value=9.24

Provide differential viability (reversal) for all items below, preserving their order.
1. CCN1C(=O)CC(N2CCC(Nc3ccc(F)cc3)CC2)C1=O (centres undefined)
2. CC(=O)c1cccc(NC(=O)NCc2ccco2)c1

[1.94, -0.48]

---

# assay name: growth inhibitors of H69AR lung tumor, primary screen, human, duplicate replicates (AID 580);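 note: 100% = mean luminescence of untreated wells and 0% = no signal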
# condition set: H69AR lung tumor cells viability, ATP luminescence, 72 h; at 10 µM; active compounds read low
Can you tell me viability for the items I'm about to list?
Numbers only, in %.

Some entries whose results are on file:
compound=CC1=NS(=O)(=O)c2cc(Cl)ccc2N1 measurement_unit=% result_value=94.4
compound=CCOc1nc(-c2ccncc2)nc2ccccc12 measurement_unit=% result_value=92.6
compound=COc1ccc2c(c1)C(=O)N(c1ccccc1OC)C(=O)C2 measurement_unit=% result_value=92.8
compound="O=C(OC1CCc2ccccc2C1=O)c1ccccc1O (stereo not given)" measurement_unit=% result_value=78.6
compound=Cc1cc(C)n(Cc2nc3ccccc3n2C)n1 measurement_unit=% result_value=99

Provide viability for all items below, preserving their order.
1. Cc1ccc(-c2cc(C(F)F)nc(NCC3CCCO3)n2)cc1 (stereo not given)
2. CCCCc1nc2n[nH]c(N)c2c2c1CCCC2
3. CCOc1ccc(C(=O)Cc2ccc3oc(C(=O)O)cc3c2)c(O)c1
4. CN1CCN(c2nc3c(c(=O)[nH]c(=O)n3C)n2CCOc2ccccc2)CC1
5. Cc1nc2ccc(S(=O)(=O)NCC(=O)N(C)Cc3ccco3)cc2s1
6. CC(Sc1nnc(-c2cc3ccccc3o2)n1-c1ccccc1)C(=O)O (stereo not given)
7. O=C(CSc1nc2cc(Cl)ccc2s1)N1CCN(C(=O)c2ccco2)CC1

100
92.3
98.8
92.2
91.6
95.1
100

Provide viability for all items below, preserving their order.
1. COCCCN1C(=O)C(=O)/C(=C(/O)c2ccc(OC)cc2)C1c1ccc(O)c(OC)c1 (stereo not given)
2. O=C(CS(=O)(=O)c1cn(Cc2ccc(Cl)cc2)c2ccccc12)N1CCOCC1
3. COc1ccc(C(=O)N2CCOCC2)cc1Br
4. CCN(CC)C(=O)C1=C(C)Nc2nnnn2C1c1cccnc1 (stereo not given)

[103, 97, 101, 93.8]

Provide viability for all items below, preserving their order.
1. CCc1ccccc1OCCCCN1CCCC1
2. CS(=O)(=O)N(CC(=O)Nc1cccc(F)c1)Cc1ccccc1
3. COc1ccc(-c2nnc(SC(C)C(=O)Nc3nccs3)n2-c2ccccc2)cc1OC (stereo not given)

89.1
103
86.8

Provide viability for all items below, preserving their order.
1. CC(=O)OCC(=O)[C@@]12OC(C)(C)O[C@@H]1C[C@H]1[C@@H]3C[C@H](F)C4=CC(=O)C=C[C@]4(C)[C@@]3(F)[C@@H](O)C[C@@]12C
2. CC(=O)c1ccccc1NS(=O)(=O)c1c(C)nn(-c2ccccc2)c1C
3. CCC(C)(C)n1nnnc1C(c1cc2cc(C)ccc2[nH]c1=O)N1CCCC1 (stereo not given)
4. COC(=O)c1nc(N)sc1-c1ccccc1

1: 106; 2: 88.3; 3: 98.6; 4: 93.3

---

# assay name: growth inhibitors of H69AR lung tumor, primary screen, human, duplicate replicates (AID 580);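 note: 100% = mean luminescence of untreated wells and 0% = no signal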
# condition set: H69AR lung tumor cells viability, ATP luminescence, 72 h; at 10 µM; active compounds read low
measure: viability (%)
One number for each entry, in %.

compound=CC(=O)c1n[nH]nc1NC(=O)c1ccccc1 measurement_unit=% result_value=89.9
compound=O=C(Cc1ccc(Br)cc1)N1CCCCCC1 measurement_unit=% result_value=97.9
compound=O=C(Nc1ccc2c(c1)OCO2)OCc1ccccc1 measurement_unit=% result_value=106
compound=CC(=O)c1c(OCC(=O)O)ccc2c(C)cc(=O)oc12 measurement_unit=% result_value=91.8
compound="CC(NC(=O)OCc1ccccc1)C(=O)N1CC(O)CC1C(=O)O (stereo unspecified)" measurement_unit=% result_value=98.5
compound=COCCNC(=O)NC(=O)COC(=O)Cc1ccc2c(c1)OCCO2 measurement_unit=% result_value=99.2
compound=O=C(CN1C(=O)CC(c2ccccc2)=Nc2ccccc21)NCc1ccco1 measurement_unit=% result_value=92.3
compound=Cc1cc(C)c(S(=O)(=O)N(C)CC(N)=O)c(C)c1 measurement_unit=% result_value=91.7
compound="O=S(=O)(c1ccc(OCC(O)CN2CCN(c3ccccc3)CC2)cc1)N1CCOCC1 (stereo unspecified)" measurement_unit=% result_value=96.4
compound="CCOC(=O)C1=C(CSc2nc(C)cc(C)c2C#N)OC(N)=C(C#N)C1c1cccs1 (stereo unspecified)" measurement_unit=% result_value=83.1

Alright, here's another compound for you.
Value lookup for viability; key = `COc1ccc(OC)c(-c2cc(C(=O)NCc3cccs3)no2)c1`
94.4

The measurements presented in this section are drawn from PubChem BioAssay.
